Values compiled from the supplement of paper PMC13380429.

Listing of recorded inhibition of SARS-CoV-2 cytopathic effect by entry.
Test system: Vero E6 infected with SARS-CoV-2
assay_remarks: inhibition of SARS-CoV-2 cytopathic effect; higher = more antiviral protection, active = above 15
measurement_setup: 8.33 nM; 48 h
Please give a number only; it is taken to be in %.

Examples with their reported inhibition of SARS-CoV-2 cytopathic effect follow.
| compound | study_target | recorded_measurement |
| --- | --- | --- |
| CCOC(=O)Nc1cc2c(c(N)n1)N=C(c1ccccc1)[C@H](C)N2 [mivobulin] | Vero E6 infected with SARS-CoV-2 | 0.16 |
| NCCc1c[nH]c2ccc(C(N)=O)cc12 [5-carboxamidotryptamine] | Vero E6 infected with SARS-CoV-2 | 0.54 |
| CCOC(=O)c1c(/C(C#N)=C\N)c2ccc(Cl)c(Cl)c2n1C | Vero E6 infected with SARS-CoV-2 | 0.69 |
| CN1CC[C@@H]2CN3CCc4cccc(c43)[C@@H]2C1 | Vero E6 infected with SARS-CoV-2 | -0.59 |

// field: inhibition of SARS-CoV-2 cytopathic effect; key: Cc1onc(-c2c(Cl)cccc2Cl)c1C(=O)N[C@@H]1C(=O)N2[C@@H]1SC(C)(C)[C@@H]2C(=O)O [dicloxacillin] ; value = -0.85

// field: inhibition of SARS-CoV-2 cytopathic effect; key: COC(=O)C1=C(C)NC(C)=C(C(=O)OCCN2CCN(C(c3ccccc3)c3ccccc3)CC2)C1c1cccc([N+](=O)[O-])c1 (configuration not stated) [manidipine] ; value = 1.19
